target: Melatonin receptor (Gallus gallus, UniProt P49288+P51050+P49285); assay: Binding affinity against chicken brain melatonin receptors using 2-[125I]iodomelatonin as radioligand
READOUT: Log Ki

COMPOUND	TESTED ON	VALUE OBSERVED
COc1ccc2ccc(OC)c(CCNC(C)=O)c2c1	Melatonin receptor (Gallus gallus, UniProt P49288+P51050+P49285)	-9.62
COc1ccc2cccc3c2c1CC(NC(C)=O)C3 (stereo unspecified)	Melatonin receptor (Gallus gallus, UniProt P49288+P51050+P49285)	-7.46
COc1ccc2ccc(OC)c(CCNC(=O)C(F)(F)F)c2c1	Melatonin receptor (Gallus gallus, UniProt P49288+P51050+P49285)	-9.41
CCC(=O)NCCc1c(OC)ccc2cc(C)ccc12	Melatonin receptor (Gallus gallus, UniProt P49288+P51050+P49285)	-7.19
CCOc1ccc2ccccc2c1CCNC(=O)CC	Melatonin receptor (Gallus gallus, UniProt P49288+P51050+P49285)	-8.97
CCCCC(=O)NCCc1cccc2ccc(OC)cc12	Melatonin receptor (Gallus gallus, UniProt P49288+P51050+P49285)	-7.35
CCC(=O)NCCc1cc(Br)ccc1OC	Melatonin receptor (Gallus gallus, UniProt P49288+P51050+P49285)	-8.94
CCCC(=O)NCCc1cccc2ccc(OC)cc12	Melatonin receptor (Gallus gallus, UniProt P49288+P51050+P49285)	-10.53
COc1ccc(C)cc1CCNC(C)=O	Melatonin receptor (Gallus gallus, UniProt P49288+P51050+P49285)	-6.71
COc1cc2c(CCNC(=O)C3CC3)c[nH]c2cc1F	Melatonin receptor (Gallus gallus, UniProt P49288+P51050+P49285)	-8.6
COc1cc2ccccc2c2c1CC(NC(C)=O)CC2 (stereo unspecified)	Melatonin receptor (Gallus gallus, UniProt P49288+P51050+P49285)	-6.67
COc1ccc2cccc(CONC(C)=O)c2c1	Melatonin receptor (Gallus gallus, UniProt P49288+P51050+P49285)	-8.77
CCOc1ccc2ccccc2c1CCNC(C)=O	Melatonin receptor (Gallus gallus, UniProt P49288+P51050+P49285)	-8.45
COc1ccc(C)cc1CCNC(=O)C(F)(F)F	Melatonin receptor (Gallus gallus, UniProt P49288+P51050+P49285)	-6.64
COc1ccc2cccc(CCNC(=O)C3CC3)c2c1	Melatonin receptor (Gallus gallus, UniProt P49288+P51050+P49285)	-7.71
COc1ccc2cccc(CCNC=O)c2c1	Melatonin receptor (Gallus gallus, UniProt P49288+P51050+P49285)	-8.03
CCCC(=O)NCCc1c[nH]c2cc(F)c(OC)cc12	Melatonin receptor (Gallus gallus, UniProt P49288+P51050+P49285)	-9.85
CCC(=O)NCCc1cc(OC)cc2ccc(OC)cc12	Melatonin receptor (Gallus gallus, UniProt P49288+P51050+P49285)	-7.92
COc1ccc(OC)c(CCNC(=O)C(F)(F)F)c1	Melatonin receptor (Gallus gallus, UniProt P49288+P51050+P49285)	-6.94
COc1ccc2ccccc2c1CCNC(=O)C(F)(F)F	Melatonin receptor (Gallus gallus, UniProt P49288+P51050+P49285)	-9.26
CCCCC(=O)NCCc1cccc2ccccc12	Melatonin receptor (Gallus gallus, UniProt P49288+P51050+P49285)	-6.62
CCC(=O)NCCc1c(OC)ccc2ccc(OC)cc12	Melatonin receptor (Gallus gallus, UniProt P49288+P51050+P49285)	-10.14
CC(=O)NCCc1cccc2ccc(O)cc12	Melatonin receptor (Gallus gallus, UniProt P49288+P51050+P49285)	-7.52
COc1ccc2ccccc2c1CONC(C)=O	Melatonin receptor (Gallus gallus, UniProt P49288+P51050+P49285)	-7.25
CC(=O)NCCc1c[nH]c2ccccc12	Melatonin receptor (Gallus gallus, UniProt P49288+P51050+P49285)	-6.31
CCOc1ccc2ccccc2c1CCNC(=O)C(F)(F)F	Melatonin receptor (Gallus gallus, UniProt P49288+P51050+P49285)	-8.23

====

target: Melatonin receptor (Gallus gallus, UniProt P49288+P51050+P49285); assay: Binding affinity against chicken brain melatonin receptors using 2-[125I]iodomelatonin as radioligand
READOUT: Log Ki

Some entries whose results are on file:
RECORD SMILES	Log Ki
COc1ccc2[nH]cc(CCNC(=O)C3CC3)c2c1	-8.6
CCCNC(=O)NCCc1c[nH]c2ccc(OC)cc12	-8.17
COc1ccc(OC)c(CCNC(C)=O)c1	-7.15
COc1ccc2cccc(CCNC(=O)CBr)c2c1	-9.92
COc1cccc(CCNC(=O)C(F)(F)F)c1	-5.72

I. COc1ccc(-c2ccccc2)cc1CCNC(C)=O
II. CCC(=O)NCCc1cccc2ccc(OC)cc12
Exercise: Lab note: check whether I or II has the lower measured Log Ki. Give the label under which the chosen entry appears.
Key: II

The reported measurements were obtained from ChEMBL document CHEMBL1130377.
